Field: fold difference in affinity against the original. Provide a value for each of the binders that follow.
Molecular target: T1, IL-1β (UniProt P01584 117-269)
T1 construct: Antigen of XPA23
Assay: Biacore, Fab periplasmic extract
Provide the measurement as a number trailed by its unit.

BINDER	OBSERVED MEASUREMENT
XPA23 heavy chain D106G (Fab, V domains shown, Fab, periplasmic extract; also called C5A D106G) VH: EVQLLESGGGLVQPGGSLRLSCAASGFTFSKYFMFWVRQAPGKGLEWVSVISPSGGMTRYADSVKGRFTISRDNSKNTLYLQMNSLRAEDTAVYYCARVGYGGNSGYWGQGTLVTVSS VL: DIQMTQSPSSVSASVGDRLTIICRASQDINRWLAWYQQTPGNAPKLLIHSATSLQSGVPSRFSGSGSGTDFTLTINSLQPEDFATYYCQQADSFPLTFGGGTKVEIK	0.03 fold

fold difference in affinity against the original recorded for this binder, XPA23 heavy chain P53G (Fab, V domains shown, Fab, periplasmic extract; also called C5A P53G) VH: EVQLLESGGGLVQPGGSLRLSCAASGFTFSKYFMFWVRQAPGKGLEWVSVISGSGGMTRYADSVKGRFTISRDNSKNTLYLQMNSLRAEDTAVYYCARVGYGGNSDYWGQGTLVTVSS VL: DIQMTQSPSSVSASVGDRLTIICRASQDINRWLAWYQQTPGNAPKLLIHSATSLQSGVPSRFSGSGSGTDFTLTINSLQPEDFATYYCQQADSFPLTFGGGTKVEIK , is 0.02 fold
